Target: UniProt:P23977
Sequence (P23977 whole entry): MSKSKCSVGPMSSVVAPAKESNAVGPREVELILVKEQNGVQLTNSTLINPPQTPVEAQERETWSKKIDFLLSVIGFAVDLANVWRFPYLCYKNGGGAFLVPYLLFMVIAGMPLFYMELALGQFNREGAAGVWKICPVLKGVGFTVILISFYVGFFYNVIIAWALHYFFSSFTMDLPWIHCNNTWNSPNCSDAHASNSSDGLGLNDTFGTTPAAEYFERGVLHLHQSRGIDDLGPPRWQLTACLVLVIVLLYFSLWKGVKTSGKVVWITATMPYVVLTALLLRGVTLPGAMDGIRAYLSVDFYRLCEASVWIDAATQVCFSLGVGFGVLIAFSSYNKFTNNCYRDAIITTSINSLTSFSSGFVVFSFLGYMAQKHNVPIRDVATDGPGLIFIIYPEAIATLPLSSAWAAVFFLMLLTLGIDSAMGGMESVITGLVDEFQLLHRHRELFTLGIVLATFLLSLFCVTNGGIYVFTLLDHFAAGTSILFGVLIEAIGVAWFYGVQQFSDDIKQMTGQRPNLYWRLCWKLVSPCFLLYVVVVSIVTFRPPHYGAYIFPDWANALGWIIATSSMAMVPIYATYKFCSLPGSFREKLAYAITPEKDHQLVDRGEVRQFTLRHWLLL
Assay: In vitro potency for inhibiting [3H]- dopamine uptake in rat brain was determined
Assay type: functional, tissue-based

{"columns": ["compound", "IC50 [nM]"],
 "data": [
  ["COC(=O)[C@@H]1C2CCC(C[C@@H]1c1ccc(Cl)c(Cl)c1)N2C (stereo not given in full)", 1.4],
  ["CN1C2CCC1[C@@H](C(=O)OCc1ccccc1)[C@@H](c1ccc(Cl)c(Cl)c1)C2 (stereo not given in full)", 19],
  ["CCOC(=O)[C@@H]1C2CCC(C[C@@H]1c1ccc(Cl)c(Cl)c1)N2C (stereo not given in full)", 1.9],
  ["CN1C2CCC1[C@@H](C(=O)OCCc1ccccc1)[C@@H](c1ccc(Cl)c(Cl)c1)C2 (stereo not given in full)", 3.2],
  ["CC(C)OC(=O)[C@@H]1C2CCC(C[C@@H]1c1ccc(Cl)c(Cl)c1)N2C (stereo not given in full)", 2.7]
]}

----------
pKi: −log10 of the molar value.
// values below are pKi; system is Norepinephrine transporter (Rattus norvegicus, UniProt Q9WTR4)
Sequence (Q9WTR4 whole entry): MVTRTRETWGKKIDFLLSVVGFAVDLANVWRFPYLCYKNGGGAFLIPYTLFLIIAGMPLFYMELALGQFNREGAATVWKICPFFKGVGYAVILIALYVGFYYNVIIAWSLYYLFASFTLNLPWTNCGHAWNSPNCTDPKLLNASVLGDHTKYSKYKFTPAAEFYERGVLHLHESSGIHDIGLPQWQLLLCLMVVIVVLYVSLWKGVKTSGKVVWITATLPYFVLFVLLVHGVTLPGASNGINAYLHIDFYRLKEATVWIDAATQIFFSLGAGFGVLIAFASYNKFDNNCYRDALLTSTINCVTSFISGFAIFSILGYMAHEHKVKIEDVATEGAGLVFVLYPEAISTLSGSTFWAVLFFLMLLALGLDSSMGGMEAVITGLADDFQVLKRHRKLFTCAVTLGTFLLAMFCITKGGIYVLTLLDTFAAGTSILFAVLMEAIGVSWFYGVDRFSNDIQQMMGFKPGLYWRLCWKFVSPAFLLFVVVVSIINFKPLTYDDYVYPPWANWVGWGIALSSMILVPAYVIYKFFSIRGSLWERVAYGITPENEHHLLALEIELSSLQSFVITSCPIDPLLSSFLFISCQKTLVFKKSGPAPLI

{"columns": ["compound", "pKi"],
 "data": [
  ["CN1C2CCC1[C@@H](C(=O)OCc1ccccc1)[C@@H](OC(c1ccc(F)cc1)c1ccc(F)cc1)C2 (single isomer, unassigned; (+))", 5.65],
  ["CCOC(=O)[C@@H]1C2CCC(C[C@@H]1OC(c1ccc(F)cc1)c1ccc(F)cc1)N2C (some centres not stated)", 6.20],
  ["COC(=O)[C@@H]1C2CCC(C[C@@H]1OC(c1ccc(F)cc1)c1ccc(F)cc1)N2C (single isomer, unassigned; (+))", 6.57],
  ["CN1C2CCC1[C@@H](C(=O)OCCc1ccccc1)[C@@H](OC(c1ccc(F)cc1)c1ccc(F)cc1)C2 (single isomer, unassigned; (+))", 5.99],
  ["CC(C)OC(=O)[C@@H]1C2CCC(C[C@@H]1OC(c1ccc(F)cc1)c1ccc(F)cc1)N2C (single isomer, unassigned; (+))", 6.19],
  ["CN1C2CCC1[C@@H](C(=O)OCCc1ccc(N)cc1)[C@@H](OC(c1ccc(F)cc1)c1ccc(F)cc1)C2 (some centres not stated)", 5.87],
  ["COC(=O)[C@@H]1C2CCC(C[C@@H]1c1ccc(Cl)c(Cl)c1)N2C (some centres not stated)", 7.80]
]}

----------
Target: UniProt P23977
Experiment: In vitro dopamine transporter binding affinity using [3H]WIN-35428 as radioligand was determined
Threshold 20 nM: Ki strictly smaller gives 1, otherwise 0.

{"columns": ["compound", "tested-system", "group"],
 "data": [
  ["CN1C2CCC1[C@@H](C(=O)OCCc1ccc([N+](=O)[O-])cc1)[C@@H](OC(c1ccc(F)cc1)c1ccc(F)cc1)C2 (some centres not stated)", "UniProt P23977", 0],
  ["CN1C2CCC1[C@@H](C(=O)OCCc1ccc(N)c(I)c1)[C@@H](OC(c1ccc(F)cc1)c1ccc(F)cc1)C2 (some centres not stated)", "UniProt P23977", 0],
  ["CN1C2CCC1[C@@H](C(=O)OCCc1ccccc1)[C@@H](c1ccc(Cl)c(Cl)c1)C2 (some centres not stated)", "UniProt P23977", 1],
  ["CN1C2CCC1[C@@H](C(=O)OCc1ccccc1)[C@@H](OC(c1ccc(F)cc1)c1ccc(F)cc1)C2 (some centres not stated)", "UniProt P23977", 0],
  ["CN1C2CCC1[C@@H](C(=O)OCCc1ccccc1)[C@@H](OC(c1ccc(F)cc1)c1ccc(F)cc1)C2 (some centres not stated)", "UniProt P23977", 0],
  ["CN1C2CCC1[C@@H](C(=O)OCc1ccccc1)[C@@H](c1ccc(Cl)c(Cl)c1)C2 (some centres not stated)", "UniProt P23977", 0],
  ["CC(C)OC(=O)[C@@H]1C2CCC(C[C@@H]1OC(c1ccc(F)cc1)c1ccc(F)cc1)N2C (some centres not stated)", "UniProt P23977", 0],
  ["CC(C)OC(=O)[C@@H]1C2CCC(C[C@@H]1c1ccc(Cl)c(Cl)c1)N2C (some centres not stated)", "UniProt P23977", 1],
  ["CCOC(=O)[C@@H]1C2CCC(C[C@@H]1OC(c1ccc(F)cc1)c1ccc(F)cc1)N2C (some centres not stated)", "UniProt P23977", 1],
  ["CCOC(=O)[C@@H]1C2CCC(C[C@@H]1c1ccc(Cl)c(Cl)c1)N2C (some centres not stated)", "UniProt P23977", 1],
  ["CN1C2CCC1[C@@H](C(=O)OCCc1ccc(N)cc1)[C@@H](OC(c1ccc(F)cc1)c1ccc(F)cc1)C2 (some centres not stated)", "UniProt P23977", 0],
  ["COC(=O)[C@@H]1C2CCC(C[C@@H]1c1ccc(Cl)c(Cl)c1)N2C (some centres not stated)", "UniProt P23977", 1]
]}

Source of measurements: ChEMBL document CHEMBL1145827
